details: buffer; pH 7.4; 200.0 µM
Observed property: solubility kinetic

CCn1c(CN(C)c2ccccc2)nc2ccccc21 = > 39.8 µg/mL
CC1=CCC(C(=O)O)C(C(=O)NC2CCCCC2)C1 (centres undefined) = > 39.8 µg/mL
Cc1ccc(CNC(=O)c2ccc[nH]2)cc1 = > 32.1 µg/mL

Turning now to a further molecule:
[in] Consider the molecule Cn1cc([N+](=O)[O-])c(C(=O)N2CCCCCC2)n1 and give its measured solubility kinetic.
[out] > 37.8 µg/mL

---

solubility kinetic reference
settings: buffer; pH 7.4; 200.0 µM

Field: example entries. Status: answers known.
Cn1c(=O)c2c(nc(N3CCCC3)n2C)n(C)c1=O = > 39.5 µg/mL
CC(=O)Nc1ccc(Nc2nc(C)cc(C)n2)cc1 = > 38.4 µg/mL
CC1(c2ccc3noc(-c4cccc(F)c4)c3c2)OCCO1 = < 0.6 µg/mL
O=S1(=O)CCN(C(CCO)c2cccc(C(F)(F)F)c2)CC1 (centres undefined) = > 50.6 µg/mL

[in] Consider the compound COc1ccc(-n2c(CN3CCOCC3)nc3ccccc3c2=O)c(OC)c1 and give its measured solubility kinetic.
[out] > 57.2 µg/mL

[in] Consider the compound CCCCCCN1C2=NCCCN2c2ccccc21.Cl and give its measured solubility kinetic.
[out] > 44.1 µg/mL

[in] Consider the compound COc1ccccc1CCn1c(N)cc(=O)[nH]c1=O and give its measured solubility kinetic.
[out] > 39.2 µg/mL

[in] Consider the compound Cc1cc(OCC(=O)N2CCC(C(=O)O)CC2)c2c(C)cc(=O)oc2c1 and give its measured solubility kinetic.
[out] > 53.9 µg/mL

[in] Consider the compound COc1cnc(NS(=O)(=O)c2ccc(N)cc2)nc1 and give its measured solubility kinetic.
[out] > 42 µg/mL

---

settings: buffer; pH 7.4; 200.0 µM
Observed property: solubility kinetic

Cc1[nH]c(SCC(=O)Nc2cc(C(N)=O)cc(C(N)=O)c2)nc1Cc1ccccc1 = > 63.5 µg/mL
Cc1cc(C)c2c(n1)sc1c(N3CCCCC3)ncnc12 = < 0.2 µg/mL
O=C(NCCC(=O)N1CCN(c2ccccn2)CC1)c1ccc(Cl)cc1 = > 55.9 µg/mL

Turning now to a further compound:
[in] Consider the compound Nc1c(Cl)ncnc1NCC(O)CO (centres undefined) and give its measured solubility kinetic.
[out] > 32.8 µg/mL

---

conditions: buffer; pH 7.4; 200.0 µM
solubility kinetic reference

[in] Consider the compound OC1CCCCC1N1CCC(c2ccccc2)CC1 (configuration not stated) and give its measured solubility kinetic.
[out] > 38.9 µg/mL

---

details: buffer; pH 7.4; 200.0 µM
solubility kinetic reference

CCCNC(=O)COC(=O)/C=C/c1ccc(C)o1 = > 37.7 µg/mL
Cn1c(=S)[nH]c2sc3c(c2c1=O)CCC(C(C)(C)C)C3 (stereo not given) = < 0.3 µg/mL

[in] Consider the compound COC(=O)[C@H](CC(C)C)NC(=O)N1CCCCC1 and give its measured solubility kinetic.
[out] > 38.5 µg/mL

[in] Consider the compound Cc1cc(C)c(NC(=O)CSc2cccc[n+]2[O-])c(C)c1 and give its measured solubility kinetic.
[out] > 45.4 µg/mL

[in] Consider the compound O=C(NCCNc1ccccc1[N+](=O)[O-])c1ccccc1F and give its measured solubility kinetic.
[out] > 45.5 µg/mL
